Values compiled from the supplement of paper PMC6897291.

System: RIVA
assay.details: growth inhibition by drug alone (1 - RLU/untreated control) (fraction); higher = stronger inhibition
details: 100 nM; time (day): 4; 177Lu-lilotomab satetraxetan 0 ug/ml
quantity.name: growth inhibition by drug alone
Quick one: just the number, no unit, thanks!

molecule | growth inhibition by drug alone
CC1(CN2CCC(n3c(=O)[nH]c4ccccc43)CC2)OCc2ccccc2-n2cccc21 (stereo not drawn) | -0.303
Cc1cccc(-c2nn3c(c2-c2ccnc4ccc(C(N)=O)cc24)CCC3)n1 | -0.126

`NC(=O)c1ccc(-c2nc(-c3ccccn3)c(-c3ccc4c(c3)OCO4)[nH]2)cc1` has a reported growth inhibition by drug alone of -0.199

So for COc1nc(C)cnc1NS(=O)(=O)c1cccnc1-c1ccc(-c2nnco2)cc1 [Zibotentan (ZD4054)] , the logged growth inhibition by drug alone turned out to be -0.0394

Form: molecule = `C[C@H](NC(=O)Cc1cc(F)cc(F)c1)C(=O)N[C@H](C(=O)OC(C)(C)C)c1ccccc1` ; growth inhibition by drug alone = -0.293

growth inhibition by drug alone in this record for O=C1[C@H](CC[C@H](O)c2ccc(F)cc2)[C@@H](c2ccc(O)cc2)N1c1ccc(F)cc1 [Ezetimibe (Zetia)] : -0.068

Reported growth inhibition by drug alone ( `O=C(O)CCc1ccc(NCc2cccc(Oc3ccccc3)c2)cc1` ) = -0.306

response.value for `NC(=O)c1ccc2nc(-c3ccc(Oc4ccc(Cl)cc4)cc3)[nH]c2c1` (field: growth inhibition by drug alone) = -0.096

For this molecule ( COc1cc2ncnc(Nc3ccc(F)c(Cl)c3)c2cc1OCCCN1CCOCC1 [Gefitinib (Iressa)] ), measured growth inhibition by drug alone is -0.33

// `CN(C)CCCCSC(=N)N` : growth inhibition by drug alone value = -0.0664

response.value for COc1cc2/c(=N/c3ccc(Br)cc3F)nc[nH]c2cc1OCC1CCN(C)CC1 [Vandetanib (Zactima)] (field: growth inhibition by drug alone) = -0.353

Record summary for `Cc1nc(Nc2ncc(C(=O)Nc3c(C)cccc3Cl)s2)cc(N2CCN(CCO)CC2)n1` : reported growth inhibition by drug alone = 0.826

----------
System: RIVA
assay.details: growth inhibition by drug alone (1 - RLU/untreated control) (fraction); higher = stronger inhibition
details: 10 nM; time (day): 3; 177Lu-lilotomab satetraxetan 0 ug/ml
Where a name gives a salt, the structure may show the parent alone.
met means recorded growth inhibition by drug alone is -0.09 or above; not met means it is below -0.09.

Illustrative cases are given below, each with its answer.
compound | class.label
Clc1ccc(Nc2nnc(Cc3ccncc3)c3ccccc23)cc1 [Vatalanib dihydrochloride (PTK787)] | met
Cc1cnc(Nc2ccc(OCCN3CCCC3)cc2)nc1Nc1cccc(S(=O)(=O)NC(C)(C)C)c1 | not met
O=C1c2c(O)ccc(O)c2C(=O)c2c(NCCNCCO)ccc(NCCNCCO)c21 [Mitoxantrone Hydrochloride] | met
c1ccc2c(-c3cnn4cc(-c5ccc(N6CCNCC6)cc5)cnc34)ccnc2c1 | not met
CCc1cc(-c2n[nH]c(C)c2-c2ccc3c(c2)OCCO3)c(O)cc1O | met
CC(=O)Nc1nc(C)c(-c2ccc(Cl)c(S(=O)(=O)NCCO)c2)s1 | met

Exam item: decide whether the reported growth inhibition by drug alone for CN1CC[C@H](c2c(O)cc(O)c3c(=O)cc(-c4ccccc4Cl)oc23)[C@H](O)C1 [Flavopiridol hydrochloride] is at least -0.09.
Marked response: not met

Exam item: Form field: growth inhibition by drug alone at least -0.09? Entry: `CN(C)Cc1c(C(=O)NCCOc2ccc(C(=O)NO)cc2)oc2ccccc12`
Marked response: not met

Exam item: In plain terms: is recorded growth inhibition by drug alone at least -0.09 for `COc1cc2c(cc1OC)CN(CCc1ccc(NC(=O)c3cccc4c(=O)c5cccc(OC)c5[nH]c34)cc1)CC2` ?
Marked response: not met

Exam item: # check: growth inhibition by drug alone of `C#Cc1cccc(Nc2ncnc3cc(OC)c(OCCCCCCC(=O)NO)cc23)c1` is greater than or equal to -0.09
Marked response: not met

Exam item: Reported growth inhibition by drug alone reaches at least -0.09 for `Cc1ccc(NC(=O)c2cccc(C(C)(C)C#N)c2)cc1Nc1ccc2ncn(C)c(=O)c2c1` ?
Marked response: met

Exam item: Could you verify whether the entry `CCOC(=O)[C@@H](C)Oc1cccc2c(=O)n(CC(=O)Nc3ccc4c(c3)OCCO4)ccc12` shows growth inhibition by drug alone of no less than -0.09?
Marked response: not met

Exam item: Assess whether reported growth inhibition by drug alone for `CC(=O)Nc1cccc(-n2c(=O)n(C3CC3)c(=O)c3c(Nc4ccc(I)cc4F)n(C)c(=O)c(C)c32)c1` sits at -0.09 or higher.
Marked response: met
